Target: T1, human ST2 (hST2, Interleukin-1 receptor-like 1 isoform A) on cells (human, UniProt Q01638 19-556)
T1 construct: the same id is used for hST2 naturally expressed on KU812 cells and on human CD4+ T cells; also called HEK293T-hST2-NFκB-Luciferase; KU812-NFκB-Luciferase
T1 sequence: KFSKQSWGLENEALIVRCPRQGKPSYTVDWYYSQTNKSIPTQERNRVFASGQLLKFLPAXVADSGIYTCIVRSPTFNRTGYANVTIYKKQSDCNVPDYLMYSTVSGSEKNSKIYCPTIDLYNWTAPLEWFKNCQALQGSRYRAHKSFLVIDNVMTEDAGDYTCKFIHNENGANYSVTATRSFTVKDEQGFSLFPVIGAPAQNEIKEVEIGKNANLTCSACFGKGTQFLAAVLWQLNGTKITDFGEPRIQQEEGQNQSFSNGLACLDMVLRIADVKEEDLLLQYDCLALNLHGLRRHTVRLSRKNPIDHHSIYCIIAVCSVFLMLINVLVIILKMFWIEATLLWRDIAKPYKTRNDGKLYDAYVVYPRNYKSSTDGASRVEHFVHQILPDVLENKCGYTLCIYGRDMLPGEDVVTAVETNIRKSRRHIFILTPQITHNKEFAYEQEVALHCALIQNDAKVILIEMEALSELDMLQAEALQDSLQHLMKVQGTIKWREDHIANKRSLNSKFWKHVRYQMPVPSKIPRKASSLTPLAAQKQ
Experiment: flow cytometry on HEK293T-hST2-NFκB-Luciferase cells
PROPERTY LABEL: pEC50
Numbers only, as −log10 of the molar value.

Problem: Which pEC50 value belongs to Chimeric 7D1 (antibody, human IgG2, kappa, V domains shown, also called xi7D1) VH: QVQLQQSGAELVRPGASVTLSCKASGYTFTDYEMHWVKQTPVHGLDWIGTIDPETGDTAYNQKFKGRATLTADKSSSTAYMELSSLTSEDSAVYYCTRYSYTNSPYGMDYWGQGTSVTVSS VL: DVVMTQTPKFLLVSAGDRVTITCKASQSVSNDVAWYQQKPGQSPKLLIYYASNRYTGVPDRFTGSGYGTDFTFTINTVQAEDLAVYFCQQDYSSPYTFGGGTKLEIKR ?
Result: 9.58

Origin of the recorded values: patent US20230272086A1
